Assay: Binding affinity against Sigma receptor type 1 was determined by the displacement of [3H]pentazocine radioligand
attribute_measured: Ki (nM)

Solved entries (count: 3):
1. C[C@@H]1CN(CCCn2c3ccccc3c3ccccc32)C[C@@H](C)N1CCCc1ccccc1 = 104
2. C[C@@H]1CN(CCCN(c2ccccc2)c2ccccc2)C[C@@H](C)N1CCCc1ccccc1 = 97.2
3. C[C@@H]1CN(CCCN(c2ccc(F)cc2)c2ccc(F)cc2)C[C@@H](C)N1 = 124

[a] C[C@@H]1CN(CCCN(c2ccccc2)c2ccccc2)C[C@@H](C)N1
[b] Fc1ccc(N(CCCN2CCN(CCCc3ccccc3)CC2)c2ccc(F)cc2)cc1
Query: In terms of reported Ki, does a or b have the smaller number? Please indicate the selected item by its label.
Reply: b
